Data origin, for the record: patent US7709532B2

- Assay procedure: In vivo bioavailability experiment, single oral administration
- Parameters: species or system rat
- Condition info: male, HAN:WIST, rat, plasma, po, 6 mg/kg, oral SPP100 6 mg base/kg + PSC833 50 mg/kg
Value type: Cmax (µg/mL)
Respond numerically; units are µg/mL and should not be typed.

Give its Cmax value. Item: COCCCOc1cc(C[C@@H](C[C@H](N)[C@@H](O)C[C@H](C(=O)NCC(C)(C)C(N)=O)C(C)C)C(C)C)ccc1OC [SPP100]
0.0267

---

- Assay procedure: In vivo bioavailability experiment, single oral administration
- Design: species or system rat
- Condition info: male, HAN:WIST, rat, plasma, po, 6 mg/kg, oral SPP100 6 mg base/kg + PSC833 25 mg/kg
Value type: Tmax (h)
Respond numerically; units are h and should not be typed.

Give its Tmax value. Item: COCCCOc1cc(C[C@@H](C[C@H](N)[C@@H](O)C[C@H](C(=O)NCC(C)(C)C(N)=O)C(C)C)C(C)C)ccc1OC [SPP100]
15.2
